Numbers sourced from patent US6127382A.

testedSystem: RXRα (Homo sapiens, UniProt P19793)
Construct: expressed in transfected cells
Sequence (P19793 whole entry): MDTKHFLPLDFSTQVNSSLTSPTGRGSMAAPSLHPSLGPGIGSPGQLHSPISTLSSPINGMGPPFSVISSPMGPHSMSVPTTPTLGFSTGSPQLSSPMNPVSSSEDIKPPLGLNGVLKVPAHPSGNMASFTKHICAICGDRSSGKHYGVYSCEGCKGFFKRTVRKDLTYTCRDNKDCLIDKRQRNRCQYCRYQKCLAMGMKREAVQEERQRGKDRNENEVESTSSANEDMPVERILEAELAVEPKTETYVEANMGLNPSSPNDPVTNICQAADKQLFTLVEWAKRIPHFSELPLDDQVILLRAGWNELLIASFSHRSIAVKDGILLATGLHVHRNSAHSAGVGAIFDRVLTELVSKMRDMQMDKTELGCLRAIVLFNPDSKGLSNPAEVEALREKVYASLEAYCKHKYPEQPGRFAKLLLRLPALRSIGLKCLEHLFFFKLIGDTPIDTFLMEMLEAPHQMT
assayOverview: ligand binding assay, RXRα
conditionSet: read-out: RXR Bind Ki α
From the text: Other assays described below, measure the ability of the compounds of the present invention to bind to, and/or activate various retinoid receptor subtypes. When in these assays a compound binds to a given receptor subtype and activates the transcription of a reporter gene through that subtype, then the compound is considered an agonist of that receptor subtype. […]
measure: Ki (nM)

{"compound": "CCN(c1ccc(C(=O)O)cc1)c1ccc2c(c1)C(C)(C)CCN2C(C)C [Compound 12]", "Ki [nM]": 136}

A. Cc1cc2c(cc1N(CC1CC1)c1ccc(C(=O)O)cc1)C(C)(C)CCN2C(C)C [Compound 26]
B. CCN(c1ccc(C(=O)O)cc1)c1ccc2c(c1)N(C(C)C)CCC2(C)C [Compound 38]
Inquiry: Lab note: check whether A or B shows the higher recorded Ki. Your choice should be expressed through its label.
Reply text: A
(A: 413 nM, B: 10 nM)
